B1: ZNF263 (parent)
chain: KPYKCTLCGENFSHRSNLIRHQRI

Variants of: B1
run-description: protein stability index of a GFP-peptide fusion (GPS, HEK-293T) (PSI 1-6); higher = more stable;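 also: lentivirally expressed fusions sorted by FACS into six bins by GFP to DsRed ratio, PSI derived from sequencing read proportions per bin multiplied by bin number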
condition-details: c terminus: a fixed tail appended
Answer each item with its documented protein stability index.
Numbers only.

mutation_name=I19S value=1.88

Parameters: items (list). Returns: protein stability index for each item.
1. K4V
2. P2G
3. C8H

A)
1. 2.87
2. 2.77
3. 2.1

Values were extracted from the supplement of paper PMC10567573.
